Here the recorded pIC50 is given for each entry.
Target: AURKB (Aurora B) enzyme (Homo sapiens, UniProt Q96GD4)
Construct: purchased Invitrogen PVR 130
Sequence (Q96GD4 whole entry): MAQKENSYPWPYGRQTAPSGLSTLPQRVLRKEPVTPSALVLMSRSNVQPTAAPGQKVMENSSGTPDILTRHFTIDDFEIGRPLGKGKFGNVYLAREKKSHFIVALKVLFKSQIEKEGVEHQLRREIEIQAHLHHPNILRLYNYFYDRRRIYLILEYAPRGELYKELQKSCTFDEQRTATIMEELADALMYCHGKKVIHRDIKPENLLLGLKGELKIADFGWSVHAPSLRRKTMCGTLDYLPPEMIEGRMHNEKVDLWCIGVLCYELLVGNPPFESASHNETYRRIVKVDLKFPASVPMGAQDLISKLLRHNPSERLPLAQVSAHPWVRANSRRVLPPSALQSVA
Experiment: Aurora B HTRF assay
Type: biochemical
Settings: read-out: AuroraB IC50
pIC50: −log10 of the molar value.

Compound	pIC50
CNS(=O)(=O)c1cccc(Cn2ccc3cnc(Nc4ccc5c(c4)CCC(=O)N5)nc32)c1	> 7.70
Cn1cc(Nc2ncc3ccn(S(=O)(=O)c4cccc5cccnc45)c3n2)cn1	> 7.70
CN(C)S(=O)(=O)c1ccccc1Cn1ncc2cnc(Nc3ccc4c(c3)CCC(=O)N4)cc21	> 7.70

Please find the next compound below.
**Query** Please give the measured pIC50 for this compound: `C[C@H]1CN(c2ccc(Nc3ncc4ccn(Cc5ccccc5N(C)S(C)(=O)=O)c4n3)cc2F)CCN1`
**Result** > 7.70
